# Species: Homo sapiens
# Experiment description: In vitro cytotoxicity in Human ovary tumor cells
# Format: functional
# Condition summary: Female gonad
Test readout: IC50

Look over these answered cases.
Req: Provide IC50 value for the following molecule: CC(=O)Oc1ccc(C(=NNc2ccc([N+](=O)[O-])cc2[N+](=O)[O-])c2ccc(OC(C)=O)cc2)cc1
Resp: > 10 µg/mL

Req: Given O=[N+]([O-])c1ccc(/N=N/c2c3ccccc3c(O)c3c(O)c(O)ccc23)c([N+](=O)[O-])c1 , respond with its IC50.
Resp: > 10 µg/mL

Req: Return the recorded IC50 value; entry: Nc1ccc2c(NNc3ccc([N+](=O)[O-])cc3[N+](=O)[O-])c3cc(N)ccc3c(/N=N/c3ccc([N+](=O)[O-])cc3[N+](=O)[O-])c2c1
Resp: > 5 µg/mL

Req: Read the entry O=[N+]([O-])c1ccc(/N=N/c2c3ccccc3c3c4c(cccc24)NN3)c([N+](=O)[O-])c1 and write its reported IC50.
Resp: > 5 µg/mL

Req: Name the recorded IC50 of the molecule listed here: COc1ccc(C(=NNc2ccc([N+](=O)[O-])cc2[N+](=O)[O-])c2ccc(OC)cc2O)c(O)c1
Resp: > 5 µg/mL

Next:
Req: Tell me IC50 reported for O=[N+]([O-])c1ccc(NN=C2c3cc(O)ccc3-c3ccc(O)cc32)c([N+](=O)[O-])c1
Resp: 0.08 µg/mL
